The reported measurements were obtained from patent US20130143927A1.

- Target or system: recombinant human STIM1 and Orai1 (HEK-293 cells) (Homo sapiens, UniProt Q96D31)
- Sequence (Q96D31 whole entry): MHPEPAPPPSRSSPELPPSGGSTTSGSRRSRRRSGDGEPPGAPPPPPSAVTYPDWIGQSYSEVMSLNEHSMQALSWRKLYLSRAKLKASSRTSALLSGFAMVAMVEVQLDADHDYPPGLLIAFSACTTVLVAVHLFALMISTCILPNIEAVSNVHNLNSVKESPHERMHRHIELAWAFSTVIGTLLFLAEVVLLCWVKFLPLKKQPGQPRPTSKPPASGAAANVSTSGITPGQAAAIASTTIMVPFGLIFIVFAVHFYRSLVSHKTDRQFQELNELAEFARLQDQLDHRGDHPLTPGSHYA
- Experiment summary: Fluorescence-based assay of store-operated calcium entry in Orai1/STIM1 stable cells
- Measurement conditions: fluo-4, 50% inhibition of Peak-Basal signal
Listed here are compounds together with their documented IC50.

The cases that follow already have their IC50 on record.
Compound	IC50
Cn1nc(C(F)(F)F)cc1-c1ccc(NCc2ccccc2F)s1 [Compound 34]	> 1200 nM
Cn1nc(C(F)(F)F)cc1-c1cnc(NCc2ccccc2F)s1 [Compound 4]	< 600 nM

Notebook: Cc1cc2c(cc1-c1cnc(NCc3c(F)cncc3F)s1)OC(F)(F)O2 [Compound 14] , IC50 read as 600 to 1200 nM

Notebook: Cc1cc2c(cc1-c1ccc(NCc3c(F)cccc3F)s1)OC(F)(F)O2 [Compound 36] , IC50 read as 600 to 1200 nM

Notebook: Cn1nc(C(F)(F)F)cc1-c1ccc(NCc2c(F)cccc2F)s1 [Compound 35] , IC50 read as 600 to 1200 nM

Notebook: Cn1nc(C(F)(F)F)cc1-c1cnc(NCc2c(F)cncc2F)s1 [Compound 11] , IC50 read as > 1200 nM

Notebook: Cc1cc2c(cc1-c1cnc(OCc3c(F)cccc3F)s1)OC(F)(F)O2 [Compound 31] , IC50 read as < 600 nM

Notebook: Cn1nc(C(F)(F)F)cc1-c1cnc(NCc2c(F)cccc2F)s1 [Compound 2] , IC50 read as 600 to 1200 nM

Notebook: Cn1nc(C(F)(F)F)cc1-c1cnc(OCc2c(F)cccc2F)s1 [Compound 32] , IC50 read as < 600 nM
